The measured values listed here are drawn from ChEMBL document CHEMBL4689842.

Test system: U2OS
PROTOCOL_SUMMARY: Multiplex assay against U2OS
Type: toxicity, cell-based
EXPERIMENTAL_CONTEXT: human, 24 h, 10 µM, compound concentration 10 uM, replicate 1
ASSAY_METRIC: Population Membrane Permeable-Phenotype (%)
Expressed in %, but write only the number.

// known answers, use as guide
> print(dat)
                                   compound  data.value
1  O=C1NC(=O)C(c2cnc3ccccn23)=C1c1cn2c3c(cc(F)cc13)CN(C(=O)N1CCCCC1)CC2          62
2  CCc1cccc(CC)c1NC(=O)c1nn(C)c2c1CCc1cnc(Nc3ccc(N4CCN(C)CC4)cc3OC)nc1-2          22
3  CCn1cc(-c2ccnc3[nH]c(-c4cccc(CN(C)C)c4)cc23)c(-c2ccc(NC(=O)N(C)C)cc2)n1          50

Specify Population Membrane Permeable-Phenotype (%) for CN(C)C(=O)C(CCN1CCC(O)(c2ccc(Cl)cc2)CC1)(c1ccccc1)c1ccccc1.Cl [LOPERAMIDE HYDROCHLORIDE] and stop.
92

Provide one value: measured Population Membrane Permeable-Phenotype (%) of "O=C(Nc1ccc(-n2nc(-c3cccnc3)cc2C(F)(F)F)cn1)c1ccc(-c2ccccc2)c(F)c1"
6

Using the record for "Cc1ccc2nc(NCCN)c3ncc(C)n3c2c1.O=C(O)C(F)(F)F.O=C(O)C(F)(F)F" , state its measured Population Membrane Permeable-Phenotype (%).
32

Specify measured Population Membrane Permeable-Phenotype (%) for "COc1cccc2cc(-c3nc([C@H]4CC[C@H](C(=O)O)CC4)n4ncnc(N)c34)[nH]c12" .
12

Entry "S=C(NCCCc1c[nH]cn1)NCCCN(Cc1ccc(Cl)c(Cl)c1)c1ccc(Br)cn1" needs its Population Membrane Permeable-Phenotype (%) filled in; supply it.
100
